meta.source: patent US20200138827A1

target: hSTING(H232) (Homo sapiens); assay: Luciferase reporter assay in HEK293T-hSTING-Luciferase cells, H232 polymorph; details: 20 hr stimulation, read-out: H232 activity (EC50 range)
Form field: EC50 (one value per entry).

// worked examples, EC50 included
>>> result("CC1Sc2ccc(C(=O)NCc3ccco3)nc2N(Cc2cc(F)cc(F)c2)C1=O (centres unmarked)")
"1 to 10 µM"
>>> result("O=C(NCc1c(F)cc(F)cc1F)c1ccc2c(c1)N(Cc1cc(F)cc(F)c1)S(=O)(=O)CC2")
"> 10 µM"
>>> result("CC1(CO)Sc2ccc(C(=O)NCc3ccc(F)cc3F)cc2N(Cc2c(F)cccc2Cl)C1=O (centres unmarked)")
"1 to 10 µM"
>>> result("O=C(NCc1c(F)cc(F)cc1F)c1ccc2c(c1)N(Cc1ccncc1)C(=O)CS2")
"1 to 10 µM"
>>> result("C[C@H]1Oc2ccc(C(=O)NCc3c(F)cc(F)cc3F)cc2N(Cc2cc(F)cc(F)c2)C1=O [Example 233]")
"1 to 10 µM"

[ask] Which EC50 value belongs to Cc1cccc(CNC(=O)c2ccc3c(c2)N(Cc2cc(F)cc(F)c2)C(=O)C(C)S3)c1 (centres unmarked) ?
[reply] 1 to 10 µM

[ask] Which EC50 value belongs to "CC1(C)Sc2ccc(C(=O)NCc3cc4ccccc4o3)cc2N(Cc2c(F)cccc2Cl)C1=O" ?
[reply] 1 to 10 µM

[ask] Which EC50 value belongs to Cc1ccc(CNC(=O)c2ccc3c(n2)N(Cc2cc(F)cc(F)c2)C(=O)C(C)S3)o1 (centres unmarked) [Example 198] ?
[reply] < 1 µM

###

Form field: pEC50 (one value per entry).
molecular target: hSTING(HAQ) (Homo sapiens, UniProt Q86WV6, G230A/H232R/R293Q/R71H); assay: Luciferase reporter assay in HEK293T-hSTING-Luciferase cells, HAQ polymorph; conditions: 20 hr stimulation, read-out: HAQ activity (EC50 range)
Sequence (Q86WV6 whole entry R71H/G230A/H232R/R293Q): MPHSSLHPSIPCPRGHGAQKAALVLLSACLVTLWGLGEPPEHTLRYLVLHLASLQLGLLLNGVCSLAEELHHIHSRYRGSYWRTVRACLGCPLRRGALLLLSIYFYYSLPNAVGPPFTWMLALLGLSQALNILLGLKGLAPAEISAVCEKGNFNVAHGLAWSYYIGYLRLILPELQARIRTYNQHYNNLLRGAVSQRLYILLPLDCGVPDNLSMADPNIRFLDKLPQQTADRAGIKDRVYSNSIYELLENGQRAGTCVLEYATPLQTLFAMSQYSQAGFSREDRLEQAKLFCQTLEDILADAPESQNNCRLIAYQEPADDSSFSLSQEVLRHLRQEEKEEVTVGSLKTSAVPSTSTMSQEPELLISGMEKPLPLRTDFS
pEC50: −log10 of the molar value.

[ask] API: value(readout=pEC50, system=hSTING(HAQ) (Homo sapiens, UniProt Q86WV6, G230A/H232R/R293Q/R71H)) for record Cc1ccc(CNC(=O)c2ccc3c(n2)N(Cc2cc(F)cc(F)c2)C(=O)C(C)S3)o1 (centres unmarked) [Example 190]
[reply] 5.00 to 6.00

[ask] API: value(readout=pEC50, system=hSTING(HAQ) (Homo sapiens, UniProt Q86WV6, G230A/H232R/R293Q/R71H)) for record CC1Sc2ncc(C(=O)NCc3c(F)cc(F)cc3F)cc2N(Cc2cc(F)cc(F)c2)C1=O (centres unmarked)
[reply] > 6.00

[ask] API: value(readout=pEC50, system=hSTING(HAQ) (Homo sapiens, UniProt Q86WV6, G230A/H232R/R293Q/R71H)) for record "O=C(NCc1ccc(F)cc1)c1ccc2c(c1)N(Cc1c(F)cccc1Cl)C(=O)CS2"
[reply] 5.00 to 6.00

###

Form field: pEC50 (one value per entry).
target: hSTING(H232) (Homo sapiens, UniProt Q86WV6); assay: Luciferase reporter assay in HEK293T-hSTING-Luciferase cells, H232 polymorph; settings: 20 hr stimulation, read-out: H232 activity (EC50 range)
Sequence (Q86WV6 whole entry): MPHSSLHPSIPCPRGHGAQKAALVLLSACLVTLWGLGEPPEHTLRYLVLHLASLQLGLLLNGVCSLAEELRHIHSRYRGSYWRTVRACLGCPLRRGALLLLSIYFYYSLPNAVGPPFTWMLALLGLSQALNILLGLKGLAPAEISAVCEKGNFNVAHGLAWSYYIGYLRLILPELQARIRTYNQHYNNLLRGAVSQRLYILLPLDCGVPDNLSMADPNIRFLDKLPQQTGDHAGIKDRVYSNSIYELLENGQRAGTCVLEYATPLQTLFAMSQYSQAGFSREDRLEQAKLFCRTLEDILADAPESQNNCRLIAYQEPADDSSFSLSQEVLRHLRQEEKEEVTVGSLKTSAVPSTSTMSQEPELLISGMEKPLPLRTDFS
pEC50: −log10 of the molar value.

// worked examples, pEC50 included
>>> result("CC1Sc2ccc(C(=O)NCc3c(F)cc(F)cc3F)cc2N(Cc2cc(F)cc(F)c2)C1=O (centres unmarked) [Example 148]")
"> 6.00"
>>> result("Cc1ccc(CNC(=O)c2ccc3c(n2)N(Cc2c(F)cccc2Cl)C(=O)C(C)S3)o1 (centres unmarked)")
"5.00 to 6.00"
>>> result("CC1Sc2ccc(C(=O)NCc3c(F)cc(F)cc3F)cc2N(Cc2c(F)cccc2Cl)C1=O (centres unmarked)")
"> 6.00"
>>> result("O=C(NCc1c(F)cc(F)cc1F)c1ccc2c(c1)N(Cc1c(F)cccc1Cl)C(=O)CC2")
"> 6.00"
>>> result("CC1(C)Sc2ccc(C(=O)NCc3cc4ccccc4o3)cc2N(Cc2ccccc2F)C1=O")
"< 5.00"
>>> result("O=C(NCc1cc2ccccc2o1)c1ccc2c(c1)N(Cc1ccccc1)C(=O)CS2")
"5.00 to 6.00"
>>> result("C[C@@H]1Oc2ccc(C(=O)NCc3c(F)cc(F)cc3F)cc2N(Cc2cc(F)cc(F)c2)C1=O [Example 234]")
"5.00 to 6.00"

Now, please, on to the next molecule.
[ask] Which pEC50 value belongs to CC1Sc2ncc(C(=O)NCc3c(F)cc(F)cc3F)cc2N(Cc2cc(F)cc(F)c2)C1=O (centres unmarked) ?
[reply] > 6.00

###

target: WT/R232 STING protein (Homo sapiens, UniProt Q86WV6, H232R); assay: Luciferase reporter assay in HEK293T-hSTING-Luciferase cells, WT/R232; details: 20 hr stimulation, read-out: R232 Activity (EC50 range)
Sequence (Q86WV6 whole entry H232R): as the sequence (Q86WV6 whole entry) above, with H232R counted along it
pEC50: −log10 of the molar value.
Form field: pEC50 (one value per entry).

// worked examples, pEC50 included
>>> result("Cc1cccc(CNC(=O)c2ccc3c(c2)N(Cc2ccccc2Cl)C(=O)C(C)S3)c1 (stereo not shown)")
"5.00 to 6.00"
>>> result("O=C(NCC1CCN(Cc2ccccc2)CC1)c1ccc2c(c1)N(Cc1c(F)cccc1Cl)C(=O)CS2")
"< 5.00"
>>> result("O=C(NCc1ccco1)c1ccc2c(c1)N(CCc1cccc(Cl)c1)C(=O)CS2")
"< 5.00"

Now, please, on to the next molecule.
[ask] API: value(readout=pEC50, system=WT/R232 STING protein (Homo sapiens, UniProt Q86WV6, H232R)) for record "O=C(NCc1ccco1)c1ccc2c(c1)N(C(=O)c1c(F)cccc1Cl)CCS2"
[reply] < 5.00

###

Form field: pEC50 (one value per entry).
target: WT/R232 STING protein (Homo sapiens, UniProt Q86WV6, H232R); assay: Luciferase reporter assay in HEK293T-hSTING-Luciferase cells, WT/R232; settings: 20 hr stimulation, read-out: R232 Activity (EC50 range)
pEC50: −log10 of the molar value.

[ask] Which pEC50 value belongs to O=C(NCc1ccco1)c1ccc2c(c1)N(Cc1cc(F)ccc1F)C(=O)CS2 [Example 100] ?
[reply] 5.00 to 6.00

[ask] Which pEC50 value belongs to O=C(NCc1ccco1)c1ccc2c(c1)N(Cc1ccccc1Cl)C(=O)CS2 [Example 1] ?
[reply] < 5.00

[ask] Which pEC50 value belongs to CC1(CO)Sc2ccc(C(=O)NCc3ccc(F)cc3F)cc2N(Cc2c(F)cccc2Cl)C1=O (centres unmarked) [Example 151] ?
[reply] > 6.00

[ask] Which pEC50 value belongs to O=C(NCc1ccco1)c1cc(Br)c2c(c1)N(Cc1ccccc1F)C(=O)CS2 [Example 221] ?
[reply] < 5.00

[ask] Which pEC50 value belongs to Cc1ccc(CNC(=O)c2ccc3c(c2)N(Cc2cc(F)cc(F)c2)C(=O)C(C)S3)o1 (centres unmarked) [Example 152] ?
[reply] > 6.00

[ask] Which pEC50 value belongs to O=C(NCc1cc2ccccc2o1)c1ccc2c(c1)N(Cc1ccccc1)C(=O)CS2 [Example 69] ?
[reply] 5.00 to 6.00

[ask] Which pEC50 value belongs to O=C(NCc1ccco1)c1ccc2c(c1)N(Cc1cccc(C(F)(F)F)c1)C(=O)CS2 [Example 97] ?
[reply] < 5.00

[ask] Which pEC50 value belongs to CC1Cc2ccc(C(=O)NCc3c(F)cc(F)cc3F)cc2N(Cc2c(F)cccc2Cl)C1=O (centres unmarked) [Example 267] ?
[reply] > 6.00

[ask] Which pEC50 value belongs to O=C(NCc1ccco1)c1ccc2c(c1)N(Cc1ccccc1)C(=O)CS2 [Example 111] ?
[reply] < 5.00

[ask] Which pEC50 value belongs to O=C(NCc1ccc(F)cc1F)c1ccc2c(n1)N(Cc1cc(F)cc(F)c1)C(=O)CC2 [Example 279] ?
[reply] 5.00 to 6.00

[ask] Which pEC50 value belongs to Cc1cc(CN2C(=O)CSc3ccc(C(=O)NCc4ccco4)cc32)cc(C(F)(F)F)c1 [Example 83] ?
[reply] 5.00 to 6.00

[ask] Which pEC50 value belongs to CC1Sc2ncc(C(=O)NCc3cc4ccccc4o3)cc2N(Cc2cc(F)cc(F)c2)C1=O (centres unmarked) [Example 193] ?
[reply] > 6.00

[ask] Which pEC50 value belongs to Cc1cc(CN2C(=O)CSc3ccc(C(=O)NCc4ccco4)cc32)no1 [Example 85] ?
[reply] < 5.00

[ask] Which pEC50 value belongs to N#CCC1Sc2ccc(C(=O)NCc3ccc(F)cc3F)cc2N(Cc2cc(F)cc(F)c2)C1=O (centres unmarked) [Example 162] ?
[reply] 5.00 to 6.00

[ask] Which pEC50 value belongs to O=C(NCc1ccco1)c1ccc2c(c1)N(Cc1cccc3ccccc13)C(=O)CS2 [Example 14] ?
[reply] 5.00 to 6.00

[ask] Which pEC50 value belongs to Cc1nnc(CN2C(=O)CSc3ccc(C(=O)NCc4ccco4)cc32)n1C [Example 105] ?
[reply] < 5.00

[ask] Which pEC50 value belongs to CC1(C)Sc2ccc(C(=O)NCc3c(F)cc(F)cc3F)cc2N(Cc2ccccc2F)C1=O [Example 218] ?
[reply] > 6.00
